# tested.on: I2′H (MtCYP81E7) (Medicago truncatula, UniProt Q6WNR0)
# Construct: The open reading frame of MtCYP81E7 was amplified with forward primer; made in house; host or cells: Saccharomyces cerevisiae WAT11, vector YeDP60; microsomal fraction
# Sequence (Q6WNR0 whole entry, the tested form may be a part): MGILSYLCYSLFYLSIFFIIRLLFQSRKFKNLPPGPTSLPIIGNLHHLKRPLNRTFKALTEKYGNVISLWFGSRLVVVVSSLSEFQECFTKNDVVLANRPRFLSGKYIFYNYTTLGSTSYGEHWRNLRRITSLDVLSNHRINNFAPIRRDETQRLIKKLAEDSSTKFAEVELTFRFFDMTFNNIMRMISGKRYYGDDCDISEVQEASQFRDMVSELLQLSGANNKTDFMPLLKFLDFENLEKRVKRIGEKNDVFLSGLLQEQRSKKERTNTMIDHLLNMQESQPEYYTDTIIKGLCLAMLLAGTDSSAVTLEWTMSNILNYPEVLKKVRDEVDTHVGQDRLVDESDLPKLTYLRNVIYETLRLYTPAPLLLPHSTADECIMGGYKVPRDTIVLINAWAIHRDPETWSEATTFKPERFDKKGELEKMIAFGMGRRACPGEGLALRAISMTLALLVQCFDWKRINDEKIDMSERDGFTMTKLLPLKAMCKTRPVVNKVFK
# measurement.description: Hydroxylase assay with yeast microsomes expressing recombinant MtCYP81E7 (I2′H)
# Assay type: biochemical
# experimental.context: isoflavone 40 μM; 100% = biochanin A; a = sum of putative 2′ and/or 3′-hydroxylated products; ND = activities not detectable
The reader will find reported Substrate specificity of I2′H (MtCYP81E7), relative activity values listed item by item below.
observation.type: Substrate specificity of I2′H (MtCYP81E7), relative activity (%)

compound	tested.on	display.unit	test.result
COc1ccc(-c2coc3cc(O)cc(O)c3c2=O)cc1	I2′H (MtCYP81E7) (Medicago truncatula, UniProt Q6WNR0)	%	100
COc1ccc(-c2coc3cc(O)ccc3c2=O)cc1 [Formononetin, 7-hydroxy, 4′-methoxyisoflavone]	I2′H (MtCYP81E7) (Medicago truncatula, UniProt Q6WNR0)	%	37.2
O=c1c(-c2ccc3c(c2)OCO3)coc2cc(O)ccc12	I2′H (MtCYP81E7) (Medicago truncatula, UniProt Q6WNR0)	%	35
COc1ccc(-c2coc3cc(O)ccc3c2=O)cc1O [3′-Hydroxyformononetin]	I2′H (MtCYP81E7) (Medicago truncatula, UniProt Q6WNR0)	%	4.7
